These records show IC50 for Human immunodeficiency virus type 1 reverse transcriptase (Human immunodeficiency virus 1).

Result for CC(Cc1ccccc1)/N=C(\S)Nc1nccs1 (stereo unspecified) , tested on Human immunodeficiency virus type 1 reverse transcriptase (Human immunodeficiency virus 1), IC50: > 10000 nM

---

Recorded measurements of ED50, one per entry
study-system: UniProt:Q72547
assay-remarks: Concentration which reduced the cytopathic effect of HIV-1 in MT-4 infected cells
Format: functional, cell-based
Provide only the numeric value, understood in µM.

Consider the following illustrative entries.
| line-notation | experimental-readout | numeric-readout |
| --- | --- | --- |
| CN(/C(S)=N/CCc1ccccc1)c1nccs1 | ED50 | 10 |
| S=C(NCCc1cccc(Oc2ccccc2)c1)Nc1nccs1 | ED50 | 2.8 |

Consider now this further molecule.
Recorded ED50 (molecule COc1cccc(F)c1CCNC(=S)Nc1nccs1 ): 0.3

---

assay-remarks: Concentration which reduced the viability of the uninfected MT-4 cells to 50% compared to untreated control cells
condition-info: MT4
Let's look at some compounds and their measured CD50.
Numeric only. Scale: µM

Take a look at these entries with their results.
| compound | CD50 / µM |
| --- | --- |
| Cn1cccc1CC/N=C(\S)Nc1nccs1 | 143 |
| Cc1ccccc1CCNC(=S)Nc1nccs1 | 72 |
| CCOc1cccc(CCNC(=S)Nc2nccs2)c1 | 91 |
| Fc1cccc(CCNC(=S)Nc2nccs2)c1 | 78 |

Measured CD50, Fc1cccc(Cl)c1CCNC(=S)Nc1nccs1 : 111

For this compound ( Fc1ccc(CCNC(=S)Nc2nccs2)cc1 ), measured CD50 is 78

---

study-system: Human immunodeficiency virus type 1 reverse transcriptase (Human immunodeficiency virus 1) (UniProt Q72547)
assay-remarks: Concentration which reduced the cytopathic effect of HIV-1 in MT-4 infected cells
Type: functional, cell-based
experimental-readout: ED50
Please state the value followed by its unit.

Completed entries (count: 2):
| line-notation | experimental-readout | result |
| --- | --- | --- |
| N#Cc1csc(NC(=S)NCCc2ccccc2)n1 | ED50 | 200 nM |
| S=C(NCCc1ccccc1)Nc1ccccn1 | ED50 | 200 nM |

# context switch: different compound, same ED50
ED50 for CCOc1cccc(F)c1CCNC(=S)Nc1ccc(C)cn1 is 200 nM

---

# Lookup of reported log10 of IC50 keyed by entry
study-system: Human immunodeficiency virus type 1 reverse transcriptase (Human immunodeficiency virus 1, UniProt Q72547)
In our notation, the value equals log10 of IC50 in nM.

Example entries and their recorded answers appear below.
| molecule | log10 of IC50 |
| --- | --- |
| CCc1csc(NC(=S)NCCc2ccccc2)n1 | 2.78 |
| S=C(NCCc1ccccc1)Nc1ncc(Cl)s1 | 3.38 |
| Fc1cccc(Cl)c1CCNC(=S)Nc1nccs1 | 0.78 |

Record summary for Fc1cccc(CCNC(=S)Nc2nccs2)c1 : reported log10 of IC50 = 2.18

Measured log10 of IC50 of CC(CNC(=S)Nc1nccs1)c1ccccc1 (stereo not given) : 2.65

Notebook: COc1cccc(CCNC(=S)Nc2nccs2)c1 , log10 of IC50 read as 2.18

Short answer for CCOc1cccc(CCNC(=S)Nc2nccs2)c1 : log10 of IC50 was 1.78

Per the record, S=C(NCc1ccccc1)Nc1nccs1 has log10 of IC50 of 3.08

So for Fc1ccccc1CCNC(=S)Nc1nccs1 , the logged log10 of IC50 turned out to be 1.78

---

assay-remarks: Concentration which reduced the viability of the uninfected MT-4 cells to 50% compared to untreated control cells
condition-info: MT4
experimental-readout: CD50 (µM)
Report the figure in µM without appending any unit label.

| compound | unit-string | CD50 |
| --- | --- | --- |
| S=C(NCc1ccccc1)Nc1nccs1 | µM | 120 |
| S=C(NCCc1ccccc1Cl)Nc1nccs1 | µM | 100 |
| CCc1cc(NCc2nc3c(Cl)ccc(Cl)c3o2)c(O)nc1C [L-697661] | µM | 114 |
| CCCCc1csc(NC(=S)NCCc2ccccc2)n1 | µM | 313 |

Recorded CD50 (compound S=C(NCCc1ccccc1)Nc1cc[nH]n1 ): 122

---

study-system: Human immunodeficiency virus type 1 reverse transcriptase (Human immunodeficiency virus 1, UniProt Q72547)
experimental-readout: pIC50
Conceptually, pIC50 converts a concentration in mol/L into minus its log10.

Below, each entry is followed by its recorded pIC50 result.
| line-notation | pIC50 |
| --- | --- |
| S=C(NCCc1ccccc1)Nc1nncs1 | 5.72 |
| S=C(NCCc1ccccc1)Nc1ccccn1 | 7.70 |
| FC(F)(F)c1csc(NC(=S)NCCc2ccccc2)n1 | 6.26 |
| CCOc1cccc(F)c1CCNC(=S)Nc1ccc(Br)cn1 | 8.22 |
| [N-]=[N+]=Nc1ccccc1CCNC(=S)Nc1nccs1 | 7.52 |

With those in mind, consider the next molecule.
For record S=C(NCCc1cccc(Oc2ccccc2)c1)Nc1nccs1 the listed pIC50 is 5.96

---

Listed below: CD50 values for each entry.
assay-remarks: Concentration which reduced the viability of the uninfected MT-4 cells to 50% compared to untreated control cells
condition-info: MT4

// field: CD50; key: S=C(NCCCc1ccccc1)Nc1nccs1 ; value = > 360 µM

CD50 for O=C(O)c1csc(/N=C(\S)NCCc2ccccc2)n1 is > 325 µM

Given item S=C(NCCc1ccccc1)Nc1cnccn1 , the value recorded as its CD50 is > 390 µM
